Source listed as patent US20190300590A1.

molecular target: Rat IL-23R_huFC (rat); assay: rat ELISA vs IL-23
pIC50: −log10 of the molar value. Bridges are numbered along the chain shown (N, C = ends). [ ]: non-standard residue; d: D form. Pen = CC(C)(S)[C@H](N)C(=O)O; AEA = NCCOCC(=O)O
Entries and their measured pIC50 follow.

• Ac-[Pen]RTWQCYWRKFG[AEA][dK]-NH2 (disulfide 1-6 (inferred)) [Ac-[Pen]-RTWQCYWRKFG-[AEA]-[(D)-Lys]-NH2] = 6.00 to 7.00

Read the next record carefully.
Task: pIC50 for CQTWQXYWLENG (as bracketed in name; cyclized via Cys and Pen) [Ac-CQTWQ-[Pen]-YW-[α-MeLeu]-ENG-NH2] ?
Result: 6.00 to 7.00
